EXPERIMENTAL_SYSTEM: Mitogen-activated protein kinase kinase kinase kinase 1 (Homo sapiens)
Sequence (Q92918 whole entry): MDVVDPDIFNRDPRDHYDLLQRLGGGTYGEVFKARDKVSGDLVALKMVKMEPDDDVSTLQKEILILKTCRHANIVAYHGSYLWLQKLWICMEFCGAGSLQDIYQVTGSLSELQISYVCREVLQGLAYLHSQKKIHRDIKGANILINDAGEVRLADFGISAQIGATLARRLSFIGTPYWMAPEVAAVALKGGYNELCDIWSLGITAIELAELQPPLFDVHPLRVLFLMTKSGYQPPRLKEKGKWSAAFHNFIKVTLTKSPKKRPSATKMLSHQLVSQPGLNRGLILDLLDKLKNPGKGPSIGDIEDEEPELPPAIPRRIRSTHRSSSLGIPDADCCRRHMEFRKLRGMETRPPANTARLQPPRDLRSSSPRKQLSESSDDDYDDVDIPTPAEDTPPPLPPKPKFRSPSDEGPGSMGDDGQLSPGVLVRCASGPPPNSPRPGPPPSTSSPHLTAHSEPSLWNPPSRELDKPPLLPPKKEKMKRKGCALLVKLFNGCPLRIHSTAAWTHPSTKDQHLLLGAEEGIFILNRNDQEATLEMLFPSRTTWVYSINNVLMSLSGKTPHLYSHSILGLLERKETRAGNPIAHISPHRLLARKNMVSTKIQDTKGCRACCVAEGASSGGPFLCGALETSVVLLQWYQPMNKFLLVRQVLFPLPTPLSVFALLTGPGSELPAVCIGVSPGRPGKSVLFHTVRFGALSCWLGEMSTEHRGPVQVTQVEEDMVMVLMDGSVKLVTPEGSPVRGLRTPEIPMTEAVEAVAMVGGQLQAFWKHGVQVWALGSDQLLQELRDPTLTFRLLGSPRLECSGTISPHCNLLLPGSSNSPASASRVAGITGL
TEST_NAME: MAP4K1 Biochemical Enzymatic Activity
pIC50: −log10 of the molar value.
Classify by measured pIC50: YES if it is equal to or exceeds 8, NO if it is smaller.

CC[C@](C)(O)c1cnc(NC2CC2)c2cnc(Nc3ccc4c(n3)[C@@H](C)[C@H](C)OC4=O)cc12 [WO2023288264, Compound 20]    YES
CC[C@@](C)(O)c1cnc(NC2CC2)c2cnc(Nc3ccc4c(n3)[C@@H](C)[C@H](C)OC4=O)cc12 [WO2023288264, Compound 21]    YES
CC[C@H](O)c1cnc(OC)c2cnc(Nc3ccc4c(n3)[C@@H](C)C(C)(C)OC4=O)cc12 [WO2023288264, Compound 15]    YES
CCOc1ncc([C@@](C)(O)CC)c2cc(Nc3ccc4c(n3)[C@@H](C)C(C)(C)OC4=O)ncc12 [WO2023288264, Compound 24]    YES
COC[C@@H](O)c1cnc(OC)c2cnc(Nc3ccc4c(n3)[C@@H](C)C(C)(C)OC4=O)cc12 [WO2023288264, Compound 18]    YES
COc1ncc([C@@H](C)O)c2cc(Nc3ccnc(C(C)(C)F)n3)ncc12 [WO2023288264, Compound 1]    NO
C[C@@H]1OC(=O)c2ccc(Nc3cc4c([C@@](C)(O)C5CC5)cnc(OC5CC5)c4cn3)nc2[C@H]1C [WO2023288264, Compound 25]    NO
CCOc1ncc([C@](C)(O)CC)c2cc(Nc3ccc4c(n3)[C@@H](C)C(C)(C)OC4=O)ncc12 [WO2023288264, Compound 23]    YES
COc1ncc([C@](C)(O)C(F)F)c2cc(Nc3ccnc(C(C)(C)F)n3)ncc12 [WO2023288264, Compound 12]    NO
COc1ncc([C@H](C)O)c2cc(Nc3ccnc(C(C)(C)F)n3)ncc12 [WO2023288264, Compound 2]    NO
CC[C@@](C)(O)c1cnc(OC)c2cnc(Nc3ccc4c(n3)[C@@H](C)C(C)(C)OC4=O)cc12 [WO2023288264, Compound 17]    YES
COc1ncc(C(C)(C)O)c2cc(Nc3ccnc(N4CCCC4)n3)ncc12 [WO2023288264, Compound 9]    YES

Reference source: BindingDB's records for patent WO2023288264
